Task for the reader: assign each of the following compounds its reported %-inhibition of ROS.
Molecular target: panel of more than 300 wild-type and mutant kinases (313 kinase panel) (Homo sapiens, UniProt P08922)
Test: Kinase profiling in a biochemical assay panel (mobility shift assays and ELISA), %-inhibition at 1 μM; selectivity entropy
Conditions: kinase ROS; 1 μM
// units = %; emit number, no label

Problem: In one line, give reported %-inhibition of ROS of the entry `COc1cc(Nc2c(C#N)cnc3cc(OCCCN4CCN(C)CC4)c(OC)cc23)c(Cl)cc1Cl` .
Result: 2.77

Problem: In one line, give reported %-inhibition of ROS of the entry `Cc1ccc(Nc2nccc(N(C)c3ccc4c(C)n(C)nc4c3)n2)cc1S(N)(=O)=O` .
Result: 94

Problem: In one line, give reported %-inhibition of ROS of the entry `CCCS(=O)(=O)Nc1ccc(F)c(C(=O)c2c[nH]c3ncc(-c4ccc(Cl)cc4)cc23)c1F` .
Result: 2

Problem: In one line, give reported %-inhibition of ROS of the entry `CC(=O)Nc1cccc(-n2c(=O)n(C3CC3)c(=O)c3c(Nc4ccc(I)cc4F)n(C)c(=O)c(C)c32)c1` .
Result: -0.611

Problem: In one line, give reported %-inhibition of ROS of the entry `Cc1ccc(C(=O)Nc2ccc(CN3CCN(C)CC3)c(C(F)(F)F)c2)cc1C#Cc1cnc2cccnn12` .
Result: 58

Problem: In one line, give reported %-inhibition of ROS of the entry `CNC(=O)c1cc(Oc2ccc(NC(=O)Nc3ccc(Cl)c(C(F)(F)F)c3)c(F)c2)ccn1` .
Result: 5

---

Biological target: panel of more than 300 wild-type and mutant kinases (313 kinase panel) (Homo sapiens, UniProt P29320)
Sequence (P29320 21-983, change not shown): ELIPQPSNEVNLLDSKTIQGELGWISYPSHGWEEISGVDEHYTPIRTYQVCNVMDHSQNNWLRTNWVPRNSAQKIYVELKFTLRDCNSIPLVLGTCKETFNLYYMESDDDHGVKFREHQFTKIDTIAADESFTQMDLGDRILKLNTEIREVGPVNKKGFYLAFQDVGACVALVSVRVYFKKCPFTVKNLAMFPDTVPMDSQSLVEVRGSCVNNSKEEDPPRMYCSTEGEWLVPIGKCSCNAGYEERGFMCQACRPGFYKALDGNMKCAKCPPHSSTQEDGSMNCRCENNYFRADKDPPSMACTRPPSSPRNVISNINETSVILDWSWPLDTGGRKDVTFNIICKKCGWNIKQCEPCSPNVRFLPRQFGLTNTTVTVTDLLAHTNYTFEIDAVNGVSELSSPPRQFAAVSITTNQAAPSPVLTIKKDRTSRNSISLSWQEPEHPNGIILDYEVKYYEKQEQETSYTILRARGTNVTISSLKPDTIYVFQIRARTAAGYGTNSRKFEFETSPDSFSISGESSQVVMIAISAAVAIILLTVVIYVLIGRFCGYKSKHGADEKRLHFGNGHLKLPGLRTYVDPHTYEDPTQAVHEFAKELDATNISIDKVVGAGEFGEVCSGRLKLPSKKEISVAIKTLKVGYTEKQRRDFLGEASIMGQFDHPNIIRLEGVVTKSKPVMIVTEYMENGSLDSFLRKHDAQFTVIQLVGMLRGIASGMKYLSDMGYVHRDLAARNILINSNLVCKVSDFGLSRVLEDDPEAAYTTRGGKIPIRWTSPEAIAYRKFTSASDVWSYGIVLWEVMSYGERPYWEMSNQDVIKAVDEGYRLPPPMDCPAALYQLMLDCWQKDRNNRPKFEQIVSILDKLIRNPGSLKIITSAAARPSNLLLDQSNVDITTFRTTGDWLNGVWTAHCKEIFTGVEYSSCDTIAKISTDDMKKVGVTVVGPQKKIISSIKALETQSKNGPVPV
Assay: Kinase profiling in a biochemical assay panel (mobility shift assays and ELISA), %-inhibition at 1 μM; selectivity entropy
Conditions: kinase EPHA3; compound at 1 μM
reported endpoint: %-inhibition of EPHA3 (%)
// units = %; emit number, no label

Problem: In one line, give reported %-inhibition of EPHA3 of the entry CO[C@H]1C[C@@H]2CC[C@@H](C)[C@@](O)(O2)C(=O)C(=O)N2CCCC[C@H]2C(=O)O[C@H]([C@H](C)C[C@@H]2CC[C@@H](OCCO)[C@H](OC)C2)CC(=O)[C@H](C)/C=C(\C)[C@@H](O)[C@@H](OC)C(=O)[C@H](C)C[C@H](C)/C=C/C=C/C=C/1C [everolimus] .
Result: -20

Problem: In one line, give reported %-inhibition of EPHA3 of the entry COc1cc(Nc2c(C#N)cnc3cc(OCCCN4CCN(C)CC4)c(OC)cc23)c(Cl)cc1Cl [bosutinib] .
Result: 67

Problem: In one line, give reported %-inhibition of EPHA3 of the entry C[C@@H](Oc1cc(-c2cnn(C3CCNCC3)c2)cnc1N)c1c(Cl)ccc(F)c1Cl [crizotinib] .
Result: 19

Problem: In one line, give reported %-inhibition of EPHA3 of the entry CCCS(=O)(=O)Nc1ccc(F)c(C(=O)c2c[nH]c3ncc(-c4ccc(Cl)cc4)cc23)c1F [vemurafenib] .
Result: -7.52

Problem: In one line, give reported %-inhibition of EPHA3 of the entry Cc1ccc(Nc2nccc(N(C)c3ccc4c(C)n(C)nc4c3)n2)cc1S(N)(=O)=O [pazopanib] .
Result: 10

Problem: In one line, give reported %-inhibition of EPHA3 of the entry COc1cc2nccc(Oc3ccc(NC(=O)C4(C(=O)Nc5ccc(F)cc5)CC4)cc3)c2cc1OC [cabozantinib] .
Result: 97

Problem: In one line, give reported %-inhibition of EPHA3 of the entry Cc1cn(-c2cc(NC(=O)c3ccc(C)c(Nc4nccc(-c5cccnc5)n4)c3)cc(C(F)(F)F)c2)cn1 [nilotinib] .
Result: 87

Problem: In one line, give reported %-inhibition of EPHA3 of the entry CO[C@H]1C[C@@H]2CC[C@@H](C)[C@@](O)(O2)C(=O)C(=O)N2CCCC[C@H]2C(=O)O[C@H]([C@H](C)C[C@@H]2CC[C@@H](OC(=O)C(C)(CO)CO)[C@H](OC)C2)CC(=O)[C@H](C)/C=C(\C)[C@@H](O)[C@@H](OC)C(=O)[C@H](C)C[C@H](C)/C=C/C=C/C=C/1C [temsirolimus] .
Result: -21

Problem: In one line, give reported %-inhibition of EPHA3 of the entry N#CC[C@H](C1CCCC1)n1cc(-c2ncnc3[nH]ccc23)cn1 [ruxolitinib] .
Result: 2

Problem: In one line, give reported %-inhibition of EPHA3 of the entry Cc1ccc(C(=O)Nc2ccc(CN3CCN(C)CC3)c(C(F)(F)F)c2)cc1C#Cc1cnc2cccnn12 [ponatinib] .
Result: 102

Problem: In one line, give reported %-inhibition of EPHA3 of the entry CC(C)(C)c1nc(-c2cccc(NS(=O)(=O)c3c(F)cccc3F)c2F)c(-c2ccnc(N)n2)s1 [dabrafenib] .
Result: 18

Problem: In one line, give reported %-inhibition of EPHA3 of the entry CC(=O)Nc1cccc(-n2c(=O)n(C3CC3)c(=O)c3c(Nc4ccc(I)cc4F)n(C)c(=O)c(C)c32)c1 [trametinib] .
Result: -6

Problem: In one line, give reported %-inhibition of EPHA3 of the entry O=S(=O)(c1cccc2cnccc12)N1CCCNCC1 [fasudil] .
Result: -7

Problem: In one line, give reported %-inhibition of EPHA3 of the entry COc1cc2c(Nc3ccc(Br)cc3F)ncnc2cc1OCC1CCN(C)CC1 [vandetanib] .
Result: 57

Problem: In one line, give reported %-inhibition of EPHA3 of the entry CNC(=O)c1cc(Oc2ccc(NC(=O)Nc3ccc(Cl)c(C(F)(F)F)c3)c(F)c2)ccn1 [regorafenib] .
Result: 80

---

Biological target: panel of more than 300 wild-type and mutant kinases (313 kinase panel) (Homo sapiens)
Sequence (Q9NRA0 1-654): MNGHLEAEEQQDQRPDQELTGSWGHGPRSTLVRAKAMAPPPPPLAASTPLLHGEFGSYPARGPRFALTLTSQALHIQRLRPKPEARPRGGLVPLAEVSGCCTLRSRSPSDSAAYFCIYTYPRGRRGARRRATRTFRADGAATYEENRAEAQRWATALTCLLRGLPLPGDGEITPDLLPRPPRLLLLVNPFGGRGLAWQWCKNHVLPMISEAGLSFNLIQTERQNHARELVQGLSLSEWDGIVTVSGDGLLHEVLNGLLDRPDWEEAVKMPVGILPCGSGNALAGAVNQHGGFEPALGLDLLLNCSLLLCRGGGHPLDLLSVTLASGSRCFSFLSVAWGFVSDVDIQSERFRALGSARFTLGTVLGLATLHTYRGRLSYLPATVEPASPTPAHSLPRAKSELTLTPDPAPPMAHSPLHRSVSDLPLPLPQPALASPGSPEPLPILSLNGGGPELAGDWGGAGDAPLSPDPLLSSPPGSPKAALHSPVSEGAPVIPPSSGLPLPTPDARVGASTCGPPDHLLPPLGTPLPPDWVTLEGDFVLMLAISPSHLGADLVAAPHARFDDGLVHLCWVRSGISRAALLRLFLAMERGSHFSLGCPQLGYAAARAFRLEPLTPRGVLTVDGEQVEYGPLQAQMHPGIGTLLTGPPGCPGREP
Assay: Kinase profiling in a biochemical assay panel (mobility shift assays and ELISA), %-inhibition at 1 μM; selectivity entropy
Settings: kinase SPHK2; 1 μM
reported endpoint: %-inhibition of SPHK2 (%)
// units = %; emit number, no label

Problem: Param request: %-inhibition of SPHK2 | system panel of more than 300 wild-type and mutant kinases (313 kinase panel) (Homo sapiens) | item `COc1cc2c(Nc3ccc(Br)cc3F)ncnc2cc1OCC1CCN(C)CC1`
Result: 5.7

Problem: Param request: %-inhibition of SPHK2 | system panel of more than 300 wild-type and mutant kinases (313 kinase panel) (Homo sapiens) | item `CO[C@H]1C[C@@H]2CC[C@@H](C)[C@@](O)(O2)C(=O)C(=O)N2CCCC[C@H]2C(=O)O[C@H]([C@H](C)C[C@@H]2CC[C@@H](OCCO)[C@H](OC)C2)CC(=O)[C@H](C)/C=C(\C)[C@@H](O)[C@@H](OC)C(=O)[C@H](C)C[C@H](C)/C=C/C=C/C=C/1C`
Result: 1.25

Problem: Param request: %-inhibition of SPHK2 | system panel of more than 300 wild-type and mutant kinases (313 kinase panel) (Homo sapiens) | item COc1cc2nccc(Oc3ccc(NC(=O)C4(C(=O)Nc5ccc(F)cc5)CC4)cc3)c2cc1OC [cabozantinib]
Result: 2

Problem: Param request: %-inhibition of SPHK2 | system panel of more than 300 wild-type and mutant kinases (313 kinase panel) (Homo sapiens) | item `Cc1ccc(Nc2nccc(N(C)c3ccc4c(C)n(C)nc4c3)n2)cc1S(N)(=O)=O`
Result: 4

Problem: Param request: %-inhibition of SPHK2 | system panel of more than 300 wild-type and mutant kinases (313 kinase panel) (Homo sapiens) | item `CC(C)(C)c1nc(-c2cccc(NS(=O)(=O)c3c(F)cccc3F)c2F)c(-c2ccnc(N)n2)s1`
Result: -14

Problem: Param request: %-inhibition of SPHK2 | system panel of more than 300 wild-type and mutant kinases (313 kinase panel) (Homo sapiens) | item `CNC(=O)c1cc(Oc2ccc(NC(=O)Nc3ccc(Cl)c(C(F)(F)F)c3)c(F)c2)ccn1`
Result: -3.2
